B1: HMOX1 (parent)
chain: YHIYVALEEEIERNKESPVFAPVY

- Variants of: B1
- procedure_summary: protein stability index of a GFP-peptide fusion (GPS, HEK-293T) (PSI 1-6); higher = more stable;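 note: lentivirally expressed fusions sorted by FACS into six bins by GFP to DsRed ratio, PSI derived from sequencing read proportions per bin multiplied by bin number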
- recorded_conditions: c terminus: a fixed tail appended
attribute_measured: protein stability index
Just the number.

QUERY: So what does the record say about protein stability index for `E16N` ?
RESULT: 2.25

QUERY: So what does the record say about protein stability index for `Y4N` ?
RESULT: 2.03

QUERY: So what does the record say about protein stability index for `S17W` ?
RESULT: 2.65

QUERY: So what does the record say about protein stability index for `A21P` ?
RESULT: 2.06

QUERY: So what does the record say about protein stability index for `Y4D` ?
RESULT: 2.29

QUERY: So what does the record say about protein stability index for `V19E` ?
RESULT: 2.93

QUERY: So what does the record say about protein stability index for `L7G` ?
RESULT: 2.48

QUERY: So what does the record say about protein stability index for `V19F` ?
RESULT: 1.84

QUERY: So what does the record say about protein stability index for `I3F` ?
RESULT: 2.91

QUERY: So what does the record say about protein stability index for `H2D` ?
RESULT: 3.19

QUERY: So what does the record say about protein stability index for `H2T` ?
RESULT: 2.18

QUERY: So what does the record say about protein stability index for `Y1N` ?
RESULT: 3.93

QUERY: So what does the record say about protein stability index for `I3V` ?
RESULT: 2.18

QUERY: So what does the record say about protein stability index for `P18I` ?
RESULT: 1.49

QUERY: So what does the record say about protein stability index for `A21M` ?
RESULT: 1.99

QUERY: So what does the record say about protein stability index for `L7T` ?
RESULT: 1.88

QUERY: So what does the record say about protein stability index for `E12V` ?
RESULT: 1.93

QUERY: So what does the record say about protein stability index for `L7C` ?
RESULT: 2.75

QUERY: So what does the record say about protein stability index for `V5R` ?
RESULT: 3.13

QUERY: So what does the record say about protein stability index for `F20L` ?
RESULT: 2.66

QUERY: So what does the record say about protein stability index for `E12S` ?
RESULT: 2.42

QUERY: So what does the record say about protein stability index for `I11S` ?
RESULT: 2.15

QUERY: So what does the record say about protein stability index for `S17L` ?
RESULT: 2.19

QUERY: So what does the record say about protein stability index for `A21D` ?
RESULT: 2.91

QUERY: So what does the record say about protein stability index for `I3D` ?
RESULT: 2.27

QUERY: So what does the record say about protein stability index for `R13I` ?
RESULT: 2.02

QUERY: So what does the record say about protein stability index for `P22Y` ?
RESULT: 1.77

QUERY: So what does the record say about protein stability index for `V23G` ?
RESULT: 2.1

QUERY: So what does the record say about protein stability index for `A21R` ?
RESULT: 2.2

QUERY: So what does the record say about protein stability index for `A6T` ?
RESULT: 1.82

QUERY: So what does the record say about protein stability index for `V23H` ?
RESULT: 1.84

QUERY: So what does the record say about protein stability index for `F20R` ?
RESULT: 2.95

QUERY: So what does the record say about protein stability index for `E12Q` ?
RESULT: 1.95

QUERY: So what does the record say about protein stability index for `H2A` ?
RESULT: 2.34

QUERY: So what does the record say about protein stability index for `V23D` ?
RESULT: 2.69

QUERY: So what does the record say about protein stability index for `F20G` ?
RESULT: 3.15

QUERY: So what does the record say about protein stability index for `R13E` ?
RESULT: 1.34

QUERY: So what does the record say about protein stability index for `E12N` ?
RESULT: 2.29

QUERY: So what does the record say about protein stability index for `I11Y` ?
RESULT: 2.21

QUERY: So what does the record say about protein stability index for `S17V` ?
RESULT: 1.65
